Experiment: Primary qHTS for delayed death inhibitors of the malarial parasite plastid, 48 hour incubation
Conditions: P. falciparum luciferase growth in erythrocytes; series mostly up to 28.7 µM
Screen size: about 310,000 compounds; about 18,000 (5.8%) were called active. Another 22% or so got no clear call; they are omitted. Calls come from the whole dose curve; as a rule, active = well fitted inhibition curve with a large enough effect; inconclusive = small, poorly fitted or top-dose-only effect, or another doubt; inactive = no such curve, though single readings can be large or run the other way. Only a selection was taken, and actives are over-represented in it overall.
Hi! Could you answer with just one of these? active, inactive

Q) Hey, what did the test say about `CCc1ccc(NC(=O)C(=O)NNC(=O)c2cccs2)cc1` ?
A) inactive

Q) Hey, what did the test say about `CCOc1ccc(CC(=O)NC2CCN(Cc3ccccc3)CC2)cc1` ?
A) inactive

Q) Hey, what did the test say about Cc1cccc(OC(C)C(=O)N2CCc3ccccc3C2)c1 (stereo not given) ?
A) inactive

Q) Hey, what did the test say about CC(=O)Nc1ccc(NC(=O)CCN2C(=O)C3CC=CCC3C2=O)cc1 (stereo not given) ?
A) inactive

Q) Hey, what did the test say about NC(=O)CC(NC(=O)Cc1ccc(Br)cc1)c1ccc(NC2CC3CCC2C3)c([N+](=O)[O-])c1 (stereo not given) ?
A) inactive

Q) Hey, what did the test say about `COc1cc(C(=O)NCC2(c3ccccc3)CCCC2)ccc1OC(C)C` ?
A) active

Q) Hey, what did the test say about `CC(=O)NS(=O)(=O)c1ccc2c(c1)Cc1cc(S(=O)(=O)NC(C)=O)ccc1-2` ?
A) inactive

Q) Hey, what did the test say about `COc1ccc(C(=O)Nc2ccc(C3(C#N)CCCC3)cc2)cc1OC` ?
A) inactive

Q) Hey, what did the test say about `CN(C)c1nc(Nc2ccc(Cl)c(Cl)c2)nc(N(C)C)n1` ?
A) inactive

Q) Hey, what did the test say about O=C(CN1C(=O)S/C(=C\c2ccccc2Cl)C1=O)NC1C=CS(=O)(=O)C1 (stereo not given) ?
A) inactive
